Hello, the source for this data is ChEMBL document CHEMBL1142929, in case you need it.

# Test system: Enterococcus faecium
# Protocol details: Inhibition of Enterococcus faecium aminoglycoside 6'-N-acetyltransferase
Activity calls are given as the source filed them. The calls are words filed in the database; no cut-off is given here.
Result type: Activity

| Compound smiles | Activity |
| --- | --- |
| [N-]=[N+]=NCC(=O)NC[C@H]1O[C@H](O[C@H]2[C@H](O)[C@@H](O)[C@H](N)C[C@@H]2N)[C@H](N)[C@@H](O)[C@@H]1O | inactive |
| NCC(=O)NC[C@H]1O[C@H](O[C@H]2[C@H](O)[C@@H](O)[C@H](N)C[C@@H]2N)[C@H](N)[C@@H](O)[C@@H]1O | inactive |
| N[C@H]1[C@@H](O[C@H]2[C@H](O)[C@@H](O)[C@H](N)C[C@@H]2N)O[C@H](CNC(=O)CS)[C@@H](O)[C@@H]1O | inactive |
| C#CCC(=O)NC[C@H]1O[C@H](O[C@H]2[C@H](O)[C@@H](O)[C@H](N)C[C@@H]2N)[C@H](N)[C@@H](O)[C@@H]1O | inactive |
| N[C@H]1[C@@H](O[C@H]2[C@H](O)[C@@H](O)[C@H](N)C[C@@H]2N)O[C@H](CNC(=O)Cc2cccc3ccccc23)[C@@H](O)[C@@H]1O | inactive |

// query I have this molecule here, NCCC(=O)NC[C@H]1O[C@H](O[C@H]2[C@H](O)[C@@H](O)[C@H](N)C[C@@H]2N)[C@H](N)[C@@H](O)[C@@H]1O , and I need its recorded Activity.
// result inactive

// query I have this molecule here, N[C@H]1[C@@H](O[C@H]2[C@H](O)[C@@H](O)[C@H](N)C[C@@H]2N)O[C@H](CNC(=O)CO)[C@@H](O)[C@@H]1O , and I need its recorded Activity.
// result inactive

// query I have this molecule here, N[C@H]1[C@@H](O[C@H]2[C@H](O)[C@@H](O)[C@H](N)C[C@@H]2N)O[C@H](CNC(=O)c2ccccc2)[C@@H](O)[C@@H]1O , and I need its recorded Activity.
// result inactive
